In this section, each of the molecules is paired with its reported melting point.
Quick reminder: number only, in °C, skip the unit.

COc1cccc(C(=O)C(Cc2ccc(F)cc2)CN(C)C)c1.Cl (racemic)    138

Consider the molecule CN(C)CC(Cc1ccccc1)C(=O)c1cc(O)ccc1O.Cl (racemic) . State its measured melting point.
177

###

ENDPOINT_NAME: melting point

CN(C)CC(Cc1ccccc1)C(=O)c1ccc2cc(O)ccc2c1.Cl (racemic) [Example 29]    180 to 182 °C
COc1ccc2cc(C(=O)C(Cc3ccccc3)CN(C)C)ccc2c1.Cl (racemic)    88 to 95 °C

Could you now look at the following compound, please?
Consider the compound CN(C)CC(Cc1ccccc1)C(=O)c1ccccc1-c1ccccc1.Cl (racemic) . State its measured melting point.
134 to 134.8 °C
